Taken from patent US11173145B2.

Listing of recorded IC50 by entry.
molecular target: IDO1 (Homo sapiens); construct: endogenous in cells; test: IDO1 cell-based assay (HeLa cells, IFNgamma-induced, N-formylkynurenine/L-tryptophan by RFMS); conditions: 10 ng/mL IFNgamma, 24 hours
MEASURE_NAME: IC50

CCC(NC(=O)c1ccc(Cl)cc1)[C@H]1[C@@H]2C[C@@H](Nc3ncnc4ccc(F)cc34)C[C@@H]21 (stereo partly shown) ... < 200 nM
CCC(NC(=O)c1ccc(Cl)cc1)[C@H]1[C@@H]2C[C@@H](N3C(=O)C(F)(F)c4ccccc43)C[C@@H]21 (stereo partly shown) ... < 200 nM
CC[C@@H](NC(=O)c1ccc(Cl)cc1)[C@H]1[C@@H]2C[C@@H](n3cc(C(C)(C)O)nn3)C[C@@H]21 ... > 5000 nM
CCC(NC(=O)c1ccc(Cl)cc1)[C@H]1[C@@H]2C[C@@H](n3cnc4cc(Cl)ccc43)C[C@@H]21 (stereo partly shown) ... < 200 nM
CCC(NC(=O)c1ccc(Cl)cc1)[C@H]1[C@@H]2C[C@H](NC(=O)c3ccc(F)cn3)C[C@@H]21 (stereo partly shown) ... < 200 nM
CCC(NC(=O)c1ccc(Cl)cc1)[C@H]1[C@@H]2C[C@@H](O)C[C@@H]21 (single isomer, unassigned) ... 200 to 2000 nM
CCC(NC(=O)c1ccc(Cl)cc1)[C@H]1[C@@H]2C[C@@H](Oc3nc(C)ncc3F)C[C@@H]21 (stereo partly shown) ... < 200 nM
CC[C@@H](NC(=O)c1ccc(Cl)cc1)[C@H]1[C@@H]2C[C@@H](n3cc(Br)cn3)C[C@@H]21 ... < 200 nM
COCc1cn([C@@H]2C[C@@H]3[C@H](C2)[C@H]3C(C)NC(=O)c2ccc(C#N)cc2)nn1 (stereo partly shown) ... 200 to 2000 nM
CCOC(=O)CC(NC(=O)c1ccc(Cl)cc1)[C@H]1[C@@H]2C[C@@H](Oc3ncnc4ccc(F)cc34)C[C@@H]21 (stereo partly shown) ... < 200 nM
C[C@H](C(=O)Nc1ccc(Cl)cc1)[C@H]1[C@@H]2C[C@@H](n3cnc4cc(F)c(F)cc43)C[C@@H]21 ... < 200 nM
CC[C@@H](NC(=O)c1ccc(Cl)cc1)[C@H]1[C@@H]2C[C@@H](NC(=O)c3cccnc3)C[C@@H]21 ... < 200 nM
CC[C@@H](NC(=O)c1ccc(Cl)cc1)[C@H]1[C@@H]2C[C@@H](n3cc(C#N)cn3)C[C@@H]21 ... < 200 nM

----------
Listing of recorded IC50 by entry.
Molecular target: IDO1 (Homo sapiens, UniProt P14902)
Construct: endogenous in cells; host or cells: HeLa cells (ATCC), IFNgamma-induced
Sequence (P14902 whole entry): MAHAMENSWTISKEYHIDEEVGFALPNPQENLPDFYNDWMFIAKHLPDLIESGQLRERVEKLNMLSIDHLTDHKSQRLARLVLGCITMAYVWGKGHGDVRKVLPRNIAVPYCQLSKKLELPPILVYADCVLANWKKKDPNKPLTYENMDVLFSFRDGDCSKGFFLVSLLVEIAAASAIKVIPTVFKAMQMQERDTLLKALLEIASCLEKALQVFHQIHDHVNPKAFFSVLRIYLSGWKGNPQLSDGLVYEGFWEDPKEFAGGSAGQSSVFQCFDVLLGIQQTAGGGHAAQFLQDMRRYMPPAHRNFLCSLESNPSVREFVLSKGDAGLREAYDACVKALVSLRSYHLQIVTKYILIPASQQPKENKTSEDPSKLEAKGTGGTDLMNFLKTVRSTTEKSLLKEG
Test: IDO1 cell-based assay (HeLa cells, IFNgamma-induced, N-formylkynurenine/L-tryptophan by RFMS)
Conditions: 10 ng/mL IFNgamma, 24 hours
Method: HeLa cells were obtained from the American Type Culture Collection (ATCC) and maintained in DMEM media containing 10% FBS. Cells (7,000/well) were seeded onto a 384 well plate in 50 μL of media and incubated at 37° C., 5% CO2 overnight. […] Samples were analyzed via RFMS to quantify N-Formyl Kynurenine (AUC) and L-tryptophan (AUC). […] Dose-response curves were analyzed using IC50 regression curve fitting (GeneData Screener). […]
MEASURE_NAME: IC50

O=C(NC1C2CC(Oc3cc(C(F)(F)F)nc4ccc(F)cc34)CC21)c1ccc(Cl)cc1 (stereo not shown) ... > 5000 nM
CCC(NC(=O)c1ccc(Cl)cc1)[C@H]1[C@@H]2C[C@@H](n3c(=O)[nH]c4cc(F)ccc43)C[C@@H]21 (stereo partly shown) ... 200 to 2000 nM
CC[C@@H](NC(=O)NC1CC1)[C@H]1[C@@H]2C[C@@H](n3cnc4cc(F)c(F)cc43)C[C@@H]21 ... 200 to 2000 nM
O=C(NCc1ccc(Cl)cc1)[C@H]1[C@@H]2CN(c3ncnc4ccc(F)cc34)C[C@@H]21 ... > 5000 nM
CCC(NC(=O)c1ccc(Cl)cc1)[C@H]1[C@@H]2C[C@@H](Oc3ccnc(C)c3F)C[C@@H]21 (stereo partly shown) ... < 200 nM
CCC(NC(=O)c1ccc(Cl)cc1)[C@H]1[C@@H]2C[C@@H](Nc3ccccn3)C[C@@H]21 (stereo partly shown) ... < 200 nM
CCC(NC(=O)c1ccc(Cl)cc1)[C@H]1[C@@H]2C[C@@H](n3cnc4cc(Cl)ccc4c3=O)C[C@@H]21 (stereo partly shown) ... < 200 nM

----------
Listing of recorded pIC50 by entry.
target: mouse IDO1 (Mus musculus, UniProt P28776); construct: The murine PANC02 pancreatic ductal adenocarcinoma cell line was routinely maintained in DMEM media; endogenous in cells; assay: Mouse IDO1 cell-based assay (PANC02 cells, mouse IFNgamma-induced, N-formylkynurenine/L-tryptophan by RFMS); settings: 30 ng/mL mouse IFNgamma, 48 hours
Sequence (P28776 whole entry): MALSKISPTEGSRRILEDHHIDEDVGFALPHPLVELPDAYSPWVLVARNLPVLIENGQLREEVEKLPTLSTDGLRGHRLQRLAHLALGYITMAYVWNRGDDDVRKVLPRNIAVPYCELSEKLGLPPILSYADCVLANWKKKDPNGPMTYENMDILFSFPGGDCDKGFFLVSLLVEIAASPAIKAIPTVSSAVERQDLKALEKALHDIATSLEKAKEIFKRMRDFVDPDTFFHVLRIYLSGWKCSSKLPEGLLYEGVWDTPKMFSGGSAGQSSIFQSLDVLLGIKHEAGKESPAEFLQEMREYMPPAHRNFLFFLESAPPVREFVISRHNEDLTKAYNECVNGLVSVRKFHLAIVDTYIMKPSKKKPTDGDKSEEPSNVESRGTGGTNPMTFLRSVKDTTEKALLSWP
pIC50: −log10 of the molar value.
MEASURE_NAME: pIC50

CCC(NC(=O)c1ccc(Cl)cc1)[C@H]1[C@@H]2C[C@@H](n3cnc(C4CC4)c3)C[C@@H]21 (stereo partly shown) ... 5.70 to 6.30
CCC(NC(=O)c1ccc(Cl)cc1)[C@H]1[C@@H]2C[C@H](NC(=O)c3ccc(F)cn3)C[C@@H]21 (stereo partly shown) ... > 6.30
CCC(NC(=O)c1ccc(Cl)cc1)[C@H]1[C@@H]2C[C@@H](n3ccnc3C)C[C@@H]21 (stereo partly shown) ... 5.30 to 5.70
CCC(NC(=O)c1ccc(Cl)cc1)[C@H]1[C@@H]2C[C@@H](NC(=O)c3ccccn3)C[C@@H]21 (stereo partly shown) ... 5.30 to 5.70
CCC(NC(=O)c1ccc(Cl)cc1)[C@H]1[C@@H]2C[C@@H](C(C(=O)O)c3ccccc3)C[C@@H]21 (stereo partly shown) ... 5.30 to 5.70
CCC(NC(=O)c1ccc(Cl)cc1)[C@H]1[C@@H]2C[C@@H](Nc3c([N+](=O)[O-])ccc(F)c3F)C[C@@H]21 (stereo partly shown) ... 5.70 to 6.30
CCC(NC(=O)c1ccc(Cl)cc1)[C@H]1[C@@H]2C[C@@H](n3ncc4cccnc43)C[C@@H]21 (stereo partly shown) ... 5.70 to 6.30

----------
target: IDO1 (Homo sapiens, UniProt P14902); construct: endogenous in cells; experiment: IDO1 cell-based assay (HeLa cells, IFNgamma-induced, N-formylkynurenine/L-tryptophan by RFMS); settings: 10 ng/mL IFNgamma, 24 hours
Listing of recorded IC50 by entry.
MEASURE_NAME: IC50

CC(C(=O)Nc1ccc(Cl)cc1)[C@H]1[C@@H]2C[C@@H](n3cnc4cc(F)c(F)cc43)C[C@@H]21 (some centres unmarked) ... < 200 nM
CCC(NC(=O)c1ccc(Cl)cn1)C1C2CC(n3cnc4ccc(F)cc4c3=O)CC21 (centres unmarked) ... < 200 nM
CCC(NC(=O)c1ccc(Cl)cc1)[C@H]1[C@@H]2C[C@@H](NC(C(=O)NC)c3ccccc3)C[C@@H]21 (some centres unmarked) ... 2000 to 5000 nM
CCC(NC(=O)c1ccc(Cl)cc1)[C@H]1[C@@H]2C[C@@H](NC(=O)c3nccc(C(F)(F)F)c3Cl)C[C@@H]21 (some centres unmarked) ... < 200 nM
CCC(NC(=O)c1ccc(Cl)cc1)[C@H]1[C@@H]2C[C@@H](Nc3ccc(F)cn3)C[C@@H]21 (some centres unmarked) ... < 200 nM
O=C(NC[C@@H]1[C@H]2C[C@@H](Oc3ccc4nccc(Cl)c4c3)C[C@@H]12)c1ccc(Cl)cc1 ... 200 to 2000 nM
CCC(NC(=O)c1ccc(Cl)cc1)[C@H]1[C@@H]2C[C@@H](C(C#N)c3ccccc3)C[C@@H]21 (some centres unmarked) ... < 200 nM
CCC(NC(=O)c1ccc(Cl)cc1)[C@H]1[C@@H]2C[C@@H](Oc3ncnc4cc(F)ccc34)C[C@@H]21 (some centres unmarked) ... < 200 nM
CC[C@@H](NC(=O)NC1COC1)[C@H]1[C@@H]2C[C@@H](n3cnc4cc(F)c(F)cc43)C[C@@H]21 ... > 5000 nM
CCC(NC(=O)c1ccc(Cl)cc1)[C@H]1[C@@H]2C[C@@H](n3ncc(=O)c4ccccc43)C[C@@H]21 (some centres unmarked) ... < 200 nM
CCC(NC(=O)c1ccc(Cl)cc1)[C@H]1[C@@H]2C[C@@H](C(C(=O)O)c3ccccc3)C[C@@H]21 (some centres unmarked) ... 2000 to 5000 nM
CCC(NC(=O)c1ccc(Cl)cc1)[C@H]1[C@@H]2C[C@@H](Oc3cnc4ccccc4c3)C[C@@H]21 (some centres unmarked) ... < 200 nM
CCC(NC(=O)c1ccc(Cl)cc1)[C@H]1[C@@H]2C[C@@H](Oc3c(F)cccc3F)C[C@@H]21 (some centres unmarked) ... < 200 nM
COc1ccc(C(=O)NC(C)[C@H]2[C@@H]3C[C@@H](O)C[C@@H]32)cn1 (some centres unmarked) ... > 5000 nM
